The reported measurements were obtained from patent US9346757B2.

# TESTED_ON: LPA receptor LPAR5 (Mus musculus)
# Construct: two cell lines were used with high LPAR5 expression, the human mast cell line HMC-1 and the murine microglia cell line BV-2; endogenous in cells
# Sequence (Q149R9 whole entry): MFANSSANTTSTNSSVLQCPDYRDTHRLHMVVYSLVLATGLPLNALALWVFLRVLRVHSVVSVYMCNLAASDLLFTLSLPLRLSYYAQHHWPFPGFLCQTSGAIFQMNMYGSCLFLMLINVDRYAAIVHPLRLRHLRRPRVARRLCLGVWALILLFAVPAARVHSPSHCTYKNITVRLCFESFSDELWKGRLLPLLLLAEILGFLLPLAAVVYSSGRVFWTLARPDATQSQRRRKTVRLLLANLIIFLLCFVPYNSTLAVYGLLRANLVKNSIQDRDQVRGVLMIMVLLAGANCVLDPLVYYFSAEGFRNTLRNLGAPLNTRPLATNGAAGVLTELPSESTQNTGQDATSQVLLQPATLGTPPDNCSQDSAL
# EXPERIMENT_NOTES: FLIPR assay, intracellular Ca2+ release in murine microglia cell line BV-2
# CONDITION_DETAILS: murine microglia cell line BV-2, LPA-stimulated Ca2+ release, compound added 10 minutes prior LPA

{"LINE_NOTATION": "Cc1nc(-c2ccc(Cl)cc2)c(-c2ccc(Cl)cc2Cl)cc1COC(C)(C)C(=O)NCc1ccc(C(=O)O)cc1", "UNIT_OF_MEASURE": "µM", "IC50": 3.2}
